The entries below pair compounds with pIC50 values for Type-2 angiotensin II receptor (Homo sapiens, UniProt P50052), as found in several publications.
Note on pIC50: it is the negative log10 of concentration, concentration in mol/L.

>  <compound>
O=C(O)[C@@H]1Cc2c(ccc(Cl)c2OCc2ccccc2)CN1C(=O)[C@@H](OC1CCCC1)c1ccccc1

>  <pIC50>
7.88

$$$$

Fill in the recorded pIC50 for this compound, with Type-2 angiotensin II receptor (Homo sapiens, UniProt P50052) as test system: O=C(O)[C@@H]1CN(CCC#Cc2ccccc2)CCN1C(=O)C(c1ccccc1)c1ccccc1
5.88

Fill in the recorded pIC50 for this compound, with Type-2 angiotensin II receptor (Homo sapiens, UniProt P50052) as test system: CN(CCCCc1ccccc1)[C@H]1C[C@@H](C(=O)O)N(C(=O)C(c2ccccc2)c2ccccc2)C1
7.19

Fill in the recorded pIC50 for this compound, with Type-2 angiotensin II receptor (Homo sapiens, UniProt P50052) as test system: COc1ccc2c(c1OCc1ccccc1)C[C@@H](C(=O)O)N(C(=O)[C@H](Oc1ccc(F)cc1)c1ccccc1)C2
7.11

Fill in the recorded pIC50 for this compound, with Type-2 angiotensin II receptor (Homo sapiens, UniProt P50052) as test system: COc1ccc2c(c1OCc1ccccc1)C[C@@H](C(=O)O)N(C(=O)[C@@H](O[C@@H]1CCOC1)c1ccccc1)C2 (single isomer, unassigned)
7.32

Fill in the recorded pIC50 for this compound, with Type-2 angiotensin II receptor (Homo sapiens, UniProt P50052) as test system: Cc1ccc2c(c1OCc1ccccc1)C[C@@H](C(=O)O)N(C(=O)[C@@H](OC1CC(F)(F)C1)c1ccccc1)C2
8.80

Fill in the recorded pIC50 for this compound, with Type-2 angiotensin II receptor (Homo sapiens, UniProt P50052) as test system: COc1ccc2c(c1OCc1ccccc1)CC(C(=O)O)N(C(=O)C(OC1CCOCC1)c1ccccc1)C2 (single isomer, unassigned)
6.07
